# Target Or Test System: human TSHR (Homo sapiens, UniProt P16473)
# Construct: expressed in transfected cells
# Sequence (P16473 21-764): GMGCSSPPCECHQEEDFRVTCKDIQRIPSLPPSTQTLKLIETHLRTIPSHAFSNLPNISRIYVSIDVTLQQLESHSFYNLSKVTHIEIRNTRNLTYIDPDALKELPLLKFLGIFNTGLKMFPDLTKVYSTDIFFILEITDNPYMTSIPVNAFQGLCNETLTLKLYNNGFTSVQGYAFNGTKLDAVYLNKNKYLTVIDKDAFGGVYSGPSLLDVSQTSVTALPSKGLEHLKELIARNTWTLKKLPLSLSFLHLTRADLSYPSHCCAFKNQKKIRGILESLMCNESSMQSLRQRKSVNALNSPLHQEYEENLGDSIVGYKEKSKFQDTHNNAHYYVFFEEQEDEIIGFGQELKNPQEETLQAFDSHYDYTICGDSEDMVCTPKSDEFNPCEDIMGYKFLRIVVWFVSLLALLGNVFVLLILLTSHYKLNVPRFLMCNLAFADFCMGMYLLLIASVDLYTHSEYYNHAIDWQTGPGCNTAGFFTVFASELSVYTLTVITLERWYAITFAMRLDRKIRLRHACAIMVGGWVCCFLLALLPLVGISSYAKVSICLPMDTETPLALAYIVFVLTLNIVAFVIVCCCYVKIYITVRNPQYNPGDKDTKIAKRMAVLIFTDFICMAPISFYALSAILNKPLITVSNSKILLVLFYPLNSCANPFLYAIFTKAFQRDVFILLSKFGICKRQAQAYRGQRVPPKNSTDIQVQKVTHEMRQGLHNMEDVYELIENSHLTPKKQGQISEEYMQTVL
# Test Summary: Homogeneous Time Resolved Fluorescence (HTRF) cAMP assay, TSHR cell line
# Type: cell-based
# Test Parameters: HTRF cAMP, TSHR cell line, 30 minute incubation; read-out: AC50

Molecule	Target Or Test System	AC50
COc1ccc(C2Nc3ccc(NC(=O)COC(C)=O)cc3C(=O)N2Cc2ccccc2)cc1COc1ccc(NC(C)=O)cc1 (stereo not shown) [Structure 48]	human TSHR (Homo sapiens, UniProt P16473)	8.91 µM
COc1ccc(CN(Cc2ccccc2)C(=O)c2ccc(O)cc2)cc1COc1ccc(NC(C)=O)cc1 [Structure 73]	human TSHR (Homo sapiens, UniProt P16473)	28.2 µM
COc1ccc(C2Nc3ccccc3C(=O)N2Cc2ccccc2C)cc1COc1ccc(NC(C)=O)cc1 (stereo not shown) [Structure 280]	human TSHR (Homo sapiens, UniProt P16473)	17.8 µM
COc1ccc(C2Nc3ccc(NC(=O)CO)cc3C(=O)N2Cc2cccc(Cl)c2)cc1COc1ccc(NC(C)=O)cc1 (stereo not shown) [Structure 36]	human TSHR (Homo sapiens, UniProt P16473)	5.62 µM
COc1ccc(C2Nc3ccccc3C(=O)N2Cc2cccc3ccccc23)cc1COc1ccc(NC(C)=O)cc1 (stereo not shown) [Structure 86]	human TSHR (Homo sapiens, UniProt P16473)	6.31 µM
COc1ccc(C2Nc3cccc(OC)c3C(=O)N2Cc2ccccc2)cc1COc1ccc(NC(C)=O)cc1 (stereo not shown) [Structure 274]	human TSHR (Homo sapiens, UniProt P16473)	20 µM
COc1ccc(C2Nc3ccccc3C(=O)N2Cc2ccco2)cc1COc1ccc(NC(C)=O)cc1 (stereo not shown) [Structure 8]	human TSHR (Homo sapiens, UniProt P16473)	14.1 µM

====

# Target Or Test System: human TSHR (Homo sapiens, UniProt P16473)
# Construct: expressed in transfected cells
# Test Summary: Homogeneous Time Resolved Fluorescence (HTRF) cAMP assay, TSHR cell line
# Assay type: cell-based
# Test Parameters: AC50, HTRF cAMP, TSHR cell line, 30 minute incubation
We label by threshold. Values of AC50 strictly beneath 9 µM are criterion met. Values of 9 µM and up are criterion not met.

Compound	Classification
COc1ccc(C2Nc3ccccc3C(=O)N2Cc2ccccc2)cc1COc1ccc(NC(C)=O)cc1 (single isomer, unassigned) [Structure 2]	criterion not met
COc1ccc(C2Nc3ccccc3C(=O)N2Cc2ccccc2)cc1COc1ccc(NC(C)=O)cc1 (single isomer, unassigned) [Structure 51]	criterion not met
COc1ccc(C2Nc3ccccc3C(=O)N2Cc2ccccc2)cc1COc1ccc(NC(C)=O)cc1 (single isomer, unassigned) [Structure 56]	criterion not met
COc1ccc(C2Nc3ccccc3C(=O)N2Cc2ccccc2)cc1COc1ccc(NC(C)=O)cc1 (single isomer, unassigned) [Structure 63]	criterion met
COc1ccc(C2Nc3ccccc3C(=O)N2Cc2ccccc2)cc1COc1ccc(NC(C)=O)cc1 (single isomer, unassigned) [Structure 55]	criterion met

====

# Target Or Test System: human TSHR (Homo sapiens, UniProt P16473)
# Construct: expressed in transfected cells
# Test Summary: Homogeneous Time Resolved Fluorescence (HTRF) cAMP assay, TSHR cell line
# Format: cell-based
# Test Parameters: HTRF cAMP, TSHR cell line, 30 minute incubation; read-out: AC50
# Text: Generation of Stable Cell-Lines Expressing TSHR, LHCGR or FSHR. cDNA for human TSHR was amplified by PCR from hTSHR-pSVL (1) and inserted into the pcDNA3.1(−)/hygromycin vector using restriction sites XhoI and BamHI. cDNA for human LHCGR was amplified by PCR from hLHR-pGS5 (2) and was inserted into the pcDNA3.1(+)/hygromycin vector using restriction sites BamHI and XhoI. […] Homogeneous Time Resolved Fluorescence (HTRF) cAMP Assay. […]
Label met when AC50 is strictly below 10 µM; otherwise label not met.

Compound	Target Or Test System	Classification
COc1ccc(C2N(Cc3ccccc3)C(=O)c3ccccc3N2C)cc1COc1ccc(NC(C)=O)cc1 (stereo not shown) [Structure 84]	human TSHR (Homo sapiens, UniProt P16473)	met
COc1ccc(C(=O)N(Cc2cccs2)Cc2cccs2)c(O)c1 [Structure 103]	human TSHR (Homo sapiens, UniProt P16473)	not met
COc1ccc(C(=O)N(Cc2ccccc2)Cc2cccs2)c(O)c1 [Structure 93]	human TSHR (Homo sapiens, UniProt P16473)	not met
COc1ccc(C(=O)N(Cc2ccco2)Cc2cccs2)c(O)c1 [Structure 112]	human TSHR (Homo sapiens, UniProt P16473)	not met
COc1ccc(C2Nc3ccccc3C(=O)N2Cc2cccc(Cl)c2)cc1COc1ccc(NC(C)=O)cc1 (stereo not shown) [Structure 11]	human TSHR (Homo sapiens, UniProt P16473)	met
COc1ccc(C2Nc3ccccc3C(=O)N2Cc2cccc(Cl)c2)cc1COc1ccc(NC(C)=O)cc1 (stereo not shown) [Structure 44]	human TSHR (Homo sapiens, UniProt P16473)	met
COc1ccc(C2Nc3ccccc3C(=O)N2CC(C)(C)C)cc1COc1ccc(NC(C)=O)cc1 (stereo not shown) [Structure 257]	human TSHR (Homo sapiens, UniProt P16473)	not met
COc1ccc(C2Nc3ccccc3C(=O)N2Cc2ccco2)cc1COc1ccc(NC(C)=O)cc1 (stereo not shown) [Structure 89]	human TSHR (Homo sapiens, UniProt P16473)	not met
COc1ccc(C2Oc3ccccc3C(=O)N2Cc2ccccc2)cc1COc1ccc(NC(C)=O)cc1 (stereo not shown) [Structure 35]	human TSHR (Homo sapiens, UniProt P16473)	not met
COc1ccc(C(=O)N(Cc2ccco2)Cc2cccs2)c(O)c1 [Structure 101]	human TSHR (Homo sapiens, UniProt P16473)	not met
COc1ccc(C2Nc3ccccc3C(=O)N2Cc2ccc(Cl)cc2)cc1COc1ccc(NC(C)=O)cc1 (stereo not shown) [Structure 77]	human TSHR (Homo sapiens, UniProt P16473)	met
COc1ccc(C2Nc3ccccc3C(=O)N2Cc2ccco2)cc1COc1ccc(NC(C)=O)cc1 (stereo not shown) [Structure 20]	human TSHR (Homo sapiens, UniProt P16473)	not met
COc1ccc(C2Nc3ccccc3C(=O)N2Cc2ccco2)cc1COc1ccc(NC(C)=O)cc1 (stereo not shown) [Structure 94]	human TSHR (Homo sapiens, UniProt P16473)	not met
COc1ccc(C2Nc3ccccc3C(=O)N2Cc2ccco2)cc1COc1ccc(NC(C)=O)cc1 (stereo not shown) [Structure 14]	human TSHR (Homo sapiens, UniProt P16473)	not met
COc1ccc(CN(Cc2ccccc2)C(=O)COC(C)=O)cc1COc1ccc(NC(C)=O)cc1 [Structure 130]	human TSHR (Homo sapiens, UniProt P16473)	not met
